System: Saccharomyces cerevisiae
Assay: protein stability index of tFT-peptide fusion (C-terminal peptide) (PSI (0-1 scale)); higher = more stable (slower turnover)
Settings: genetic background: wild type; temperature: 30 C
Endpoint Name: protein stability index
Give a plain numeric answer without units written out.

{"columns": ["Seq", "Measured On", "Test Result"],
 "data": [
  ["SGWSAKIPVSMI [YCR045W-A C-terminal 12 aa]", "Saccharomyces cerevisiae", 0.698],
  ["NMIIDTLGGNEK [COQ6 C-terminal 12 aa]", "Saccharomyces cerevisiae", 0.692],
  ["HQVERKAVDIVL [YPR096C C-terminal 12 aa]", "Saccharomyces cerevisiae", 0.712],
  ["DPEPPKEDPHDH [TCP1 C-terminal 12 aa]", "Saccharomyces cerevisiae", 0.704],
  ["MIWKWLIEDKKN [MRS2 C-terminal 12 aa]", "Saccharomyces cerevisiae", 0.69]
]}

**Q:** Can you share its protein stability index? I mean this sequence: TAFGISSCRDLA [YLR163W-A C-terminal 12 aa]
**A:** 0.683

**Q:** Can you share its protein stability index? I mean this sequence: LEEELTKIGLLP [GRX8 C-terminal 12 aa]
**A:** 0.698

**Q:** Can you share its protein stability index? I mean this sequence: LLDGGDGDEDAV [GON7 C-terminal 12 aa]
**A:** 0.7

---

Test system: Saccharomyces cerevisiae
Test: protein stability index of tFT-peptide fusion (C-terminal peptide) (PSI (0-1 scale)); higher = more stable (slower turnover)
Conditions: genetic background: cdc34-1; temperature: 37 C
Endpoint Name: protein stability index
Give a plain numeric answer without units written out.

Illustrative cases are given below, each with its answer.
{"columns": ["Seq", "protein stability index"],
 "data": [
  ["RLHCFSPILCPI", 0.606],
  ["WRGALHPTPVAA", 0.285],
  ["IWVWMLSVWLGG", 0.303],
  ["IIFCVRVVGGDL", 0.449],
  ["VAFVVALSLIFL", 0.327],
  ["FILLHLLGTIRS", 0.433],
  ["SLICLSVGVLLR", 0.128]
]}

**Q:** // fetch Saccharomyces cerevisiae protein stability index for FLMLFVVLWLFL
**A:** 0.427

---

Tested on: Saccharomyces cerevisiae
Experiment: protein stability index of tFT-peptide fusion (C-terminal peptide) (PSI (0-1 scale)); higher = more stable (slower turnover)
Conditions: genetic background: wild type; temperature: 30 C
Endpoint Name: protein stability index
Give a plain numeric answer without units written out.

Illustrative cases are given below, each with its answer.
{"columns": ["Seq", "Endpoint Name", "Test Result"],
 "data": [
  ["KRGIHKLVNEVG", "protein stability index", 0.683],
  ["PPPPFLPVLLFP", "protein stability index", 0.696],
  ["FVPPPVVPPFPL", "protein stability index", 0.716],
  ["AGSRPCPGWPPG", "protein stability index", 0.691]
]}

**Q:** Can you share its protein stability index? I mean this sequence: SDVRANAYRPEH
**A:** 0.688

**Q:** Can you share its protein stability index? I mean this sequence: PAPRPLSPPPTF
**A:** 0.699

**Q:** Can you share its protein stability index? I mean this sequence: PCSSFPTFPRRL
**A:** 0.715

**Q:** Can you share its protein stability index? I mean this sequence: DYVVHSGTYGPK
**A:** 0.687

**Q:** Can you share its protein stability index? I mean this sequence: PLRPSSPLPPPL
**A:** 0.71

**Q:** Can you share its protein stability index? I mean this sequence: GGWRGRAGENTR
**A:** 0.698

---

Test system: Saccharomyces cerevisiae
Experiment: protein stability index of tFT-peptide fusion (C-terminal peptide) (PSI (0-1 scale)); higher = more stable (slower turnover)
Details: genetic background: das1 deletion; temperature: 30 C
Endpoint Name: protein stability index
Give a plain numeric answer without units written out.

Illustrative cases are given below, each with its answer.
{"columns": ["Seq", "Measured On", "protein stability index"],
 "data": [
  ["VRQVEEDENYDD [CYC8 C-terminal 12 aa]", "Saccharomyces cerevisiae", 0.7],
  ["VDAKIKKQMNRH [YJR124C C-terminal 12 aa]", "Saccharomyces cerevisiae", 0.694],
  ["STDETPDNENKQ [SGT2 C-terminal 12 aa]", "Saccharomyces cerevisiae", 0.7],
  ["FVAEAYLDEFVY [ARC19 C-terminal 12 aa]", "Saccharomyces cerevisiae", 0.71],
  ["ALGMYFLGPALK [YGL063C-A C-terminal 12 aa]", "Saccharomyces cerevisiae", 0.697]
]}

From here, focus on the item given below.
**Q:** Can you share its protein stability index? I mean this sequence: YAWTRGLTNPIC [FEX1 C-terminal 12 aa]
**A:** 0.697

---

Listing of entries alongside the reported protein stability index.
Tested on: Saccharomyces cerevisiae
Experiment: protein stability index of tFT-peptide fusion (C-terminal peptide) (PSI (0-1 scale)); higher = more stable (slower turnover)
Conditions: genetic background: wild type; temperature: 30 C
Give a plain numeric answer without units written out.

{"columns": ["Seq", "protein stability index"],
 "data": [
  ["FFVFVVFFCFGL", 0.303],
  ["VVCLLGIFYGFC", 0.307],
  ["PPLTRVPLSISA", 0.305],
  ["GGSIKRFVILVL", 0.304]
]}

From here, focus on the item given below.
**Q:** Can you share its protein stability index? I mean this sequence: SLFPHIFFFFFA
**A:** 0.295

---

System: Saccharomyces cerevisiae
Assay: protein stability index of tFT-peptide fusion (C-terminal peptide) (PSI (0-1 scale)); higher = more stable (slower turnover)
Details: genetic background: wild type; temperature: 30 C
Endpoint Name: protein stability index
Give a plain numeric answer without units written out.

Illustrative cases are given below, each with its answer.
{"columns": ["Seq", "Measured On", "protein stability index"],
 "data": [
  ["KDVETLSVSDEK [SEO1 C-terminal 12 aa]", "Saccharomyces cerevisiae", 0.696],
  ["TLHDDRESKSED [CMK2 C-terminal 12 aa]", "Saccharomyces cerevisiae", 0.694],
  ["KYFADLTQSITK [YBR242W C-terminal 12 aa]", "Saccharomyces cerevisiae", 0.687],
  ["INSQTMTVTTAL [VHC1 C-terminal 12 aa]", "Saccharomyces cerevisiae", 0.691]
]}

**Q:** Can you share its protein stability index? I mean this sequence: THLQQVAVSGQA [SEC23 C-terminal 12 aa]
**A:** 0.618

---

System: Saccharomyces cerevisiae
Assay: protein stability index of tFT-peptide fusion (C-terminal peptide) (PSI (0-1 scale)); higher = more stable (slower turnover)
Settings: genetic background: wild type; temperature: 37 C
Decision: protein stability index compared against 0.5; not below it gives condition met, below it gives condition not met.

Some solved entries appear below for comparison.
{"columns": ["Seq", "Category"],
 "data": [
  ["LYYSVIFLFLSW", "condition not met"],
  ["SWWISKWVGLNC", "condition met"],
  ["RVTYWKAVLVRL", "condition not met"],
  ["LIFRLCVCGVFW", "condition not met"],
  ["CRAAMYSFFLNF", "condition met"]
]}

**Q:** Reported protein stability index reaches at least 0.5 for LWLFIVCWVGCV ?
**A:** condition not met

**Q:** Reported protein stability index reaches at least 0.5 for GWVQFVKAAVLF ?
**A:** condition not met

**Q:** Reported protein stability index reaches at least 0.5 for VYRILFWFLCFG ?
**A:** condition met

**Q:** Reported protein stability index reaches at least 0.5 for GYRFSILSILRV ?
**A:** condition met

---

Test system: Saccharomyces cerevisiae
Experiment: protein stability index of tFT-peptide fusion (C-terminal peptide) (PSI (0-1 scale)); higher = more stable (slower turnover)
Conditions: genetic background: wild type; temperature: 30 C
Endpoint Name: protein stability index

Illustrative cases are given below, each with its answer.
{"columns": ["Seq", "Test Result"],
 "data": [
  ["KRKAQEVNSKKK", 0.703],
  ["NLGRGYLVFRGM", 0.709],
  ["GGCFGGVGVGSG", 0.712],
  ["RHRPLPETDLAS", 0.708],
  ["VCIGVGGVVLGL", 0.642]
]}

**Q:** Can you share its protein stability index? I mean this sequence: TCLMLSCRSFLW
**A:** 0.63

**Q:** Can you share its protein stability index? I mean this sequence: GIRHSNLGQALE
**A:** 0.686

**Q:** Can you share its protein stability index? I mean this sequence: NSYVGSSTYVIV
**A:** 0.692

**Q:** Can you share its protein stability index? I mean this sequence: LSISGSVHILKD
**A:** 0.733

**Q:** Can you share its protein stability index? I mean this sequence: WRLGGGMVCVAS
**A:** 0.566

**Q:** Can you share its protein stability index? I mean this sequence: VLGLALYTLSTS
**A:** 0.68

**Q:** Can you share its protein stability index? I mean this sequence: GWGGCDSVVVSG
**A:** 0.697
